Target: Protein kinase C (PKC)
Test: Inhibition of protein kinase C
Format: protein assay
property label: IC50 (µM)
Report only the number, with the unit µM understood.

In plain terms, CCN(CC)CCCCNc1ncc2cc(-c3c(Cl)cccc3Cl)c(NC(=O)NC(C)(C)C)nc2n1 has a documented IC50 of 23

In plain terms, CN1CCN(CCCNc2ncc3cc(-c4c(Cl)cccc4Cl)c(NC(=O)NC(C)(C)C)nc3n2)CC1 has a documented IC50 of 22

----------
Target: UniProtKB P11802
Sequence (P11802 whole entry): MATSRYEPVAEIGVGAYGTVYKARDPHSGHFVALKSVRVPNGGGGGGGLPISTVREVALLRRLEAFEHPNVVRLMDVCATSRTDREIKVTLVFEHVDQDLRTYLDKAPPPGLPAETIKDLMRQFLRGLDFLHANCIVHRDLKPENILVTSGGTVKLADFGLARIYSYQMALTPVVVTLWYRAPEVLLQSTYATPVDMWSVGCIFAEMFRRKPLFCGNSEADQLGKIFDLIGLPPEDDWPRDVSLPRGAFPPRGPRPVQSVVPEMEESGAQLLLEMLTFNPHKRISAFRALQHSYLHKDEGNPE
pIC50: −log10 of the molar value.
property label: pIC50

In plain terms, CCN(CC)CCCCNc1ncc2cc(-c3c(Cl)cccc3Cl)c(NC(=O)Nc3ccccc3)nc2n1 has a documented pIC50 of < 4.40

----------
Target: Platelet-derived growth factor receptor beta (Mus musculus)
Sequence (P05622 whole entry): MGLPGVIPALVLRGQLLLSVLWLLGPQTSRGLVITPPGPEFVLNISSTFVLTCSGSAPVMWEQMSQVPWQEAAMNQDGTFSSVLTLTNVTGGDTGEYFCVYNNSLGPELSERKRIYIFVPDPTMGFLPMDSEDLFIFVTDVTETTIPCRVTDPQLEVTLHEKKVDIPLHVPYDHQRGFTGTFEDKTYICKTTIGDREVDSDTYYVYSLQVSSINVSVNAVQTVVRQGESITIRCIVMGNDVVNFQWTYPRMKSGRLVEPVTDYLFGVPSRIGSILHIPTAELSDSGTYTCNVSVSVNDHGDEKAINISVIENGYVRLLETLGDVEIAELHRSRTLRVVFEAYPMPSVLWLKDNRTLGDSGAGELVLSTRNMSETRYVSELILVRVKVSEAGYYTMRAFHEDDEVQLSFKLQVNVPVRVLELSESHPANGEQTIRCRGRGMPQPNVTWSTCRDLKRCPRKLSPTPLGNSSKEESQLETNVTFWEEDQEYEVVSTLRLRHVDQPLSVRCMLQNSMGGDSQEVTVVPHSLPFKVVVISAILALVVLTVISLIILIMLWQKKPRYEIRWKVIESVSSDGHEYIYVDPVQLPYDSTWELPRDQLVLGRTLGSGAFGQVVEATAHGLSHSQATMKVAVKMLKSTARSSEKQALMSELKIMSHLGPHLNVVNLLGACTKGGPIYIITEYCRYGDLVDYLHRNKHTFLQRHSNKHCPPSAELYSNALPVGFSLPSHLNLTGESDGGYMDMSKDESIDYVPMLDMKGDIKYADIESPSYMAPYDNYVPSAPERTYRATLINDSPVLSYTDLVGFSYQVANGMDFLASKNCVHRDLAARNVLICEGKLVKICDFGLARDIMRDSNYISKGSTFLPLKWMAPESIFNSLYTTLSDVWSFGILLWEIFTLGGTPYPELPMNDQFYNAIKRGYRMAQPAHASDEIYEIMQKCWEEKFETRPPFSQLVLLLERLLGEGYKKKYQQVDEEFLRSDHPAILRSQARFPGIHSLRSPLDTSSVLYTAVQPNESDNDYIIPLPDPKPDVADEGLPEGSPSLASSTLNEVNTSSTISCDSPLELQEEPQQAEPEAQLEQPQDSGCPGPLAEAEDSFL
Assay: Ability to prevent phosphorylation of isolated mouse PDGF receptor beta
property label: IC50 (µM)
Report only the number, with the unit µM understood.

In plain terms, CN1CCN(CCCNc2ncc3cc(-c4c(Cl)cccc4Cl)c(NC(=O)Nc4ccc(C(F)(F)F)cc4)nc3n2)CC1 has a documented IC50 of 5.5

In plain terms, CCN(CC)CCCNc1ncc2cc(-c3c(C)cccc3C)c(N)nc2n1 has a documented IC50 of 25

In plain terms, CN1CCN(CCCNc2ncc3cc(-c4c(Cl)cccc4Cl)c(NC(=O)Nc4ccc(Cl)c(Cl)c4)nc3n2)CC1 has a documented IC50 of 5

In plain terms, CN1CCN(CCCNc2ncc3cc(-c4c(Cl)cccc4Cl)c(NC(=O)Nc4ccc(Cl)cc4)nc3n2)CC1 has a documented IC50 of 1.8

In plain terms, CC(C)NC(=O)Nc1nc2nc(NCCCN3CCN(C)CC3)ncc2cc1-c1c(Cl)cccc1Cl has a documented IC50 of 0.55

In plain terms, CN1CCN(CCCNc2ncc3cc(-c4c(Cl)cccc4Cl)c(NC(=O)NC45C[C@H]6C[C@@H](C4)C[C@@H](C5)C6)nc3n2)CC1 has a documented IC50 of 2.8

In plain terms, C=CCNC(=O)Nc1nc2nc(NCCCN3CCN(C)CC3)ncc2cc1-c1c(Cl)cccc1Cl has a documented IC50 of 0.76

In plain terms, COc1cccc(NC(=O)Nc2nc3nc(NCCCN4CCN(C)CC4)ncc3cc2-c2c(Cl)cccc2Cl)c1 has a documented IC50 of 0.91

In plain terms, CC(C)(C)NC(=O)Nc1nc2nc(N)ncc2cc1-c1c(Br)cccc1Br has a documented IC50 of 1.4

In plain terms, CCN(CC)CCCCNc1ncc2cc(-c3c(Cl)cccc3Cl)c(NC(=S)NCCCN3CCOCC3)nc2n1 has a documented IC50 of 1.1

In plain terms, Cc1cccc(C)c1-c1cc2cnc(N)nc2nc1N has a documented IC50 of 29

In plain terms, CC(C)(C)NC(=O)Nc1nc2nc(N)ncc2cc1-c1c(Cl)cccc1Cl has a documented IC50 of 1.2

In plain terms, CCN(CC)CCNc1ncc2cc(-c3c(Cl)cccc3Cl)c(NC(=O)NC(C)(C)C)nc2n1 has a documented IC50 of 9

In plain terms, CCN(CC)CCCCNc1ncc2cc(-c3c(Cl)cccc3Cl)c(NC(=O)NC3CCCCC3)nc2n1 has a documented IC50 of 0.33

In plain terms, CN(C)CCNC(=O)Nc1nc2nc(NCCCN3CCN(C)CC3)ncc2cc1-c1c(Cl)cccc1Cl has a documented IC50 of 2.4

These data points were gathered from ChEMBL document CHEMBL1134497.
